- assay system: VTCN1, Q7Z7D3
- Sequence (Q7Z7D3 whole entry): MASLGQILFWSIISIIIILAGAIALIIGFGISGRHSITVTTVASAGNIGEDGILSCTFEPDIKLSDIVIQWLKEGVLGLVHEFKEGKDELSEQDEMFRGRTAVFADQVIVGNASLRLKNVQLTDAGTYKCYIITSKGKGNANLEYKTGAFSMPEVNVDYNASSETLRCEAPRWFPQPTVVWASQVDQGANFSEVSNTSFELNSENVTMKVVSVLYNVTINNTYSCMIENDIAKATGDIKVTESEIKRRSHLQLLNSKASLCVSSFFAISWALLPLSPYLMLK

- binder: "design_606_b60ff77f-1541-4e5f-8260-46d5e5f6b85e_1086_dldesign_0_cycle1_af2pred (protein) EKAEKLIKEIKKLAKEAKKSTPEEAKKLLEEAKKLAKEVAKLGPEAAKLAKKALSEAAAAYYENKAENEWKERKEKE"
  binding in a display sort: "not found (inactive)"
- binder: "design_604_3e0b3014-b333-46f1-8adc-d7f0bf8048fa_148_dldesign_0_cycle1_af2pred (protein) MKEASEEMAKAYEALAELRLLAKKIPEFKEDAEKAEKKLKEAVKADPETALKLAKETKEEVEKAIEKAKKKL"
  binding in a display sort: "not found (inactive)"
- binder: "design_598_15ab41e9-cad4-4381-8935-81f74b313fe8_13_dldesign_0_cycle1_af2pred (protein) AEKSREEGVKKAEEAAKLAKEAGLEEKAKKIKEAAKKAAKTGTDEDLKELSKTALEAAKLADPEKGAKISELRVEAAGYFELARIQ"
  binding in a display sort: "not found (inactive)"
